tested on: MS2 coat protein; assay: apparent KD of MS2 coat protein; designed switch direction (-1 OFF switch, 1 ON switch): 1; higher = weaker reporter binding; conditions: Eterna round: R95; input ligand: FMN 200 uM
Classification field: enter class 1 for apparent KD of MS2 coat protein values not below 70 nM, class 0 for values below it.

sequence_record	category_label
AGGCAAGCUUUUUGCUGGUAUGGAGGAUAACAUGAGGAUCACCCAUGUAUUGGAGGUGUUGUGGAUUUGAGAAAGAA [JR_SHM208A_Sub004] (puzzle: Sensor for hsa-mir-208a)	class 1
AUAAAACAUGAGGAUCACCCAUGUCAACAAAGUCGAGGAUAUGGGCAAAUAAAAUAAGAACCAGAAGGCGAAUAUU [salish99_ss1_r3_037] (puzzle: Same State 1)	class 0
ACAAGCUUUUUAGGAGAGAAAGGAGGGAAACAUGAGGAUCACCCAUGUAUGGUAGUGAAUAGAGGAACUCGUCUUAU [JR_SHM208A_Sub080] (puzzle: Sensor for hsa-mir-208a)	class 1
GGUCCAGCCUGAGCUGGACAAAAGCAUGUACAUGAGGAUCACCCAUGUUCAUGUACAAGCUUUUUGCUCGUCUUAUG [salish99_208a_r3_053] (puzzle: Sensor for hsa-mir-208a)	class 1
AGUCCAGCCUGAGCUGGACAAAAGCGUGUACAUGAGGAUCACCCAUGUCAUGUACAAGCUUUUUGCUCGUCUUAAAA [Zipper 46 - 7] (puzzle: Sensor for hsa-mir-208a)	class 0
